Data origin, for the record: the RNAGym collection of RNA variant scans (doi:10.7554/elife.90254)

B1: LINE1-full (parent)
chain: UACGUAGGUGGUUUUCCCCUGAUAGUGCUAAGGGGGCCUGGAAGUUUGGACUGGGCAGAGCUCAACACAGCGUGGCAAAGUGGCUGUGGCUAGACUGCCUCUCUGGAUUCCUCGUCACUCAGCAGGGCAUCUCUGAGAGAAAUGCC

Variants of: B1
procedure details: self-cleavage, relative activity (ratio to wild type); higher = more cleavage; in vitro, sequencing; the parent is a self-cleaving ribozyme

- mutant code: "U15A G49A"
  self-cleavage: 0.74
- mutant code: "U20G U112C"
  self-cleavage: 0.76
- mutant code: "A117G G125A"
  self-cleavage: 0.99
- mutant code: "C118U U130C"
  self-cleavage: 0.97
- mutant code: "A31G G126A"
  self-cleavage: 1.32
- mutant code: "A64U U132C"
  self-cleavage: 0.49
- mutant code: "A92G G127A"
  self-cleavage: 0.12
- mutant code: "G89A U109G"
  self-cleavage: 0.04
- mutant code: "U108C A136U"
  self-cleavage: 1.93
- mutant code: "U100G U104A"
  self-cleavage: 1.17
- mutant code: "U13A A65U"
  self-cleavage: 0.09
- mutant code: "A78G U96A"
  self-cleavage: 0.06
- mutant code: "A69U A79G"
  self-cleavage: 0.05
- mutant code: "U108A G114A"
  self-cleavage: 1.09
- mutant code: "U26A A69U"
  self-cleavage: 0.08
- mutant code: "U13C G34U"
  self-cleavage: 1.99
- mutant code: "U12G U85A"
  self-cleavage: 0.22
- mutant code: "A43G U134G"
  self-cleavage: 0.97
- mutant code: "G27A U96C"
  self-cleavage: 0.1
- mutant code: "C71A A138G"
  self-cleavage: 0.33
- mutant code: "C61G A67U"
  self-cleavage: 0.04
- mutant code: "U39A A129U"
  self-cleavage: 1.65
- mutant code: "U23C G93U"
  self-cleavage: 0.04
- mutant code: "G83A A121C"
  self-cleavage: 0.67
- mutant code: "A43C A79G"
  self-cleavage: 0.75
- mutant code: "U100A C145U"
  self-cleavage: 1.15
- mutant code: "A42U U134C"
  self-cleavage: 1.34
- mutant code: "U5A A57U"
  self-cleavage: 0.34
- mutant code: "U47C A67U"
  self-cleavage: 0.2
- mutant code: "U14A U87A"
  self-cleavage: 0.15
- mutant code: "U112C A121U"
  self-cleavage: 1.09
- mutant code: "U46C G93U"
  self-cleavage: 0.06
- mutant code: "G34U A117G"
  self-cleavage: 2
- mutant code: "U26C G32A"
  self-cleavage: 1.03
- mutant code: "U96A U102A"
  self-cleavage: 0.1
- mutant code: "C103A A129G"
  self-cleavage: 1.59
- mutant code: "U23C U46C"
  self-cleavage: 1.52
- mutant code: "A6C U119A"
  self-cleavage: 1.36
- mutant code: "G89C G122C"
  self-cleavage: 0.02
- mutant code: "G105A U134A"
  self-cleavage: 1.54
- mutant code: "C3U U52G"
  self-cleavage: 1.17
- mutant code: "C118A A142G"
  self-cleavage: 1.41
- mutant code: "A31G G32A"
  self-cleavage: 1.25
- mutant code: "A117G A129G"
  self-cleavage: 1.32
- mutant code: "G7U A64G"
  self-cleavage: 0.35
